The reported numbers originate from PubChem BioAssay AID1918936.

System: 349418-098-R-PDC complex spheroid viability
ASSAY EXPLANATION: Anticancer human tumor 349418-098-R-PDC patient-derived lung adenocarcinoma cell line growth inhibition
STATED CONDITIONS: second compound 0.1 µM; first compound 0.1 µM; hits give low values
From the text: Multicellular complex tumor spheroid response to LSD1 Inhibitor Iadademstat in combination with a variety of drugs and investigational agents in selected tumor cell lines The current study was undertaken to assess response to LSD1 inhibitors in combination with standard-of-care drugs and investigational agents in solid tumor complex spheroid models as well as in the K-562 leukemia. […] Compounds. […] If the clinical Cmax for an agent had not been determined, the highest concentration tested was 10 microM. […]
Recorded viability, T/C for the following compounds
# output: bare number, implied unit %

>  <COMPOUND>
CC(C)CC(NC(=O)CNC(=O)c1cc(Cl)ccc1Cl)B1OC(=O)CC(CC(=O)O)(C(=O)O)O1 (configuration not stated) + NC1CC1c1ccc(-c2cccc(O)c2)cc1

>  <viability, T/C, %>
1.31

$$$$

[in] # lookup: viability, T/C of CC(C)CC(NC(=O)CNC(=O)c1cc(Cl)ccc1Cl)B1OC(=O)CC(CC(=O)O)(C(=O)O)O1 (configuration not stated) + NC1CCC(NC2CC2c2ccccc2)CC1
[out] 1.44

[in] # lookup: viability, T/C of COc1ccc([C@@H](O)c2cc(-c3ncnc4cc(N5CCOCC5)ccc34)c(F)cc2Cl)nn1 + NC1CCC(NC2CC2c2ccccc2)CC1
[out] 109

[in] # lookup: viability, T/C of CC[C@@]1(O)C(=O)OCc2c1cc1n(c2=O)Cc2cc3c(CN(C)C)c(O)ccc3nc2-1 + NC1CCC(NC2CC2c2ccccc2)CC1
[out] 3.65

[in] # lookup: viability, T/C of CC(C)c1c(-c2ccccc2)nc2c(C#N)c[nH]n2c1=O + NC1CCC(NC2CC2c2ccccc2)CC1
[out] 112

[in] # lookup: viability, T/C of Nc1ncn(C2CC(O)C(CO)O2)c(=O)n1 (configuration not stated) + NC1CCC(NC2CC2c2ccccc2)CC1
[out] 28.6

[in] # lookup: viability, T/C of COc1ccc([C@@H](O)c2cc(-c3ncnc4cc(N5CCOCC5)ccc34)c(F)cc2Cl)nn1 + NC1CC1c1ccc(-c2cccc(O)c2)cc1
[out] 88.1

* * *

Test system: 349418-098-R-PDC complex spheroid viability
ASSAY EXPLANATION: Anticancer human tumor 349418-098-R-PDC cell line growth inhibition;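 note: spheroids exposed to agents for seven days before readout; 100% = DMSO vehicle control wells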
STATED CONDITIONS: second compound 0.1 µM; first compound 0.1 µM; hits give low values
PARAMETER MEASURED: viability, T/C (%)
# output: bare number, implied unit %

>  <MOLECULE>
CC(C)CC(NC(=O)C(Cc1ccccc1)NC(=O)c1cnccn1)B(O)O (stereo unspecified) + NC1CCC(NC2CC2c2ccccc2)CC1

>  <RESULT UNIT>
%

>  <viability, T/C>
0.6

$$$$
>  <MOLECULE>
CC[C@@]1(O)C(=O)OCc2c1cc1n(c2=O)Cc2cc3c(CN(C)C)c(O)ccc3nc2-1 + NC1CC1c1ccc(-c2cccc(O)c2)cc1

>  <RESULT UNIT>
%

>  <viability, T/C>
3.01

$$$$
>  <MOLECULE>
O=C(c1cc(Cc2n[nH]c(=O)c3ccccc23)ccc1F)N1CCN(C(=O)C2CC2)CC1 + NC1CCC(NC2CC2c2ccccc2)CC1

>  <RESULT UNIT>
%

>  <viability, T/C>
88.8

$$$$
>  <MOLECULE>
CC1COCCN1c1cc(C2(S(C)(=N)=O)CC2)nc(-c2ccnc3[nH]ccc23)n1 (stereo unspecified) + NC1CC1c1ccc(-c2cccc(O)c2)cc1

>  <RESULT UNIT>
%

>  <viability, T/C>
113

$$$$
>  <MOLECULE>
O=C(C=Cn1cnc(-c2cc(C(F)(F)F)cc(C(F)(F)F)c2)n1)NNc1cnccn1 + NC1CC1c1ccc(-c2cccc(O)c2)cc1

>  <RESULT UNIT>
%

>  <viability, T/C>
4.58

$$$$

// next entry
[in] # lookup: viability, T/C of CC1COCCN1c1cc(C2(S(C)(=N)=O)CC2)nc(-c2ccnc3[nH]ccc23)n1 (stereo unspecified) + NC1CCC(NC2CC2c2ccccc2)CC1
[out] 115
